Reference source: paper PMC10221314

- ASSAY SUMMARY: Stability of compound 10b in mouse plasma at 37 °C (HPLC)
- Type: in vitro ADME
- Parameters: dose or concentration left out as unconfirmed
- MEASUREMENT CONDITIONS: 6 h, read-out: Recovery rate

COMPOUND	UNIT STRING	recovery at 6 h
CC1(C)CCC2(C(=O)O)CCC3(C)C(C(OC(=O)CCC(NC(=O)OC(C)(C)C)C(=O)OC(C)(C)C)CC4C5(C)CCC(O)C(C)(C)C5CCC43C)C2C1 (stereo not shown) [Compound 10b]	%	75.8

----------
- SYSTEM TESTED: FXR (Homo sapiens)
- Construct: a fusion plasmid of Gal4 DBD-NR-LBD, which included PPARα, PPARβ, PPARγ, RXRα, RXRβ, RXRγ, LXRα, LXRβ, GPBAR, PXR, and FXR
- ASSAY SUMMARY: Yeast one-hybrid assay of FXR antagonistic activity in HEK-293T cells
- MEASUREMENT CONDITIONS: HEK-293T cells; CDCA (50 μM) as agonist; mean ± SE of three independent tests
Reported IC50 by item:

COMPOUND	IC50 [nM]
CC1(C)CC[C@]2(C(=O)O)CC[C@]3(C)[C@H]([C@H](OC(=O)C[C@@H](CC(=O)OC(C)(C)C)NC(=O)OC(C)(C)C)CC4[C@@]5(C)CC[C@H](O)C(C)(C)C5CC[C@]43C)[C@@H]2C1 (some centres unmarked) [Compound 10c]	1340
COC(=O)C(CCC(=O)OC1CC2C3(C)CCC(O)C(C)(C)C3CCC2(C)C2(C)CCC3(C(=O)O)CCC(C)(C)CC3C12)NC(=O)OC(C)(C)C (centres unmarked) [Compound 20a]	1100
CCCOC(=O)C(CCC(=O)OC1CC2C3(C)CCC(O)C(C)(C)C3CCC2(C)C2(C)CCC3(C(=O)O)CCC(C)(C)CC3C12)NC(=O)OC(C)(C)C (centres unmarked) [Compound 20c]	560
CC1(C)CC[C@]2(C(=O)O)CC[C@]3(C)[C@H]([C@H](OC(=O)[C@@H](CCC(=O)OC(C)(C)C)NC(=O)OC(C)(C)C)CC4[C@@]5(C)CC[C@H](O)C(C)(C)C5CC[C@]43C)[C@@H]2C1 (some centres unmarked) [Compound 10d]	3670
CCOC(=O)C(CCC(=O)OC1CC2C3(C)CCC(O)C(C)(C)C3CCC2(C)C2(C)CCC3(C(=O)O)CCC(C)(C)CC3C12)NC(=O)OC(C)(C)C (centres unmarked) [Compound 20b]	1020

----------
- ASSAY SUMMARY: Stability of compound 10b in mouse plasma at 37 °C (HPLC)
- Type: in vitro ADME
- MEASUREMENT CONDITIONS: 24 h, read-out: Recovery rate

COMPOUND	recovery at 24 h, 0.0025 mg/mL (%)
CC1(C)CCC2(C(=O)O)CCC3(C)C(C(OC(=O)CCC(NC(=O)OC(C)(C)C)C(=O)OC(C)(C)C)CC4C5(C)CCC(O)C(C)(C)C5CCC43C)C2C1 (stereo not shown) [Compound 10b]	68.5

----------
- SYSTEM TESTED: FXR (Homo sapiens, UniProt Q96RI1)
- Construct: a fusion plasmid of Gal4 DBD-NR-LBD, which included PPARα, PPARβ, PPARγ, RXRα, RXRβ, RXRγ, LXRα, LXRβ, GPBAR, PXR, and FXR
- Sequence (Q96RI1 262-486 limits assumed): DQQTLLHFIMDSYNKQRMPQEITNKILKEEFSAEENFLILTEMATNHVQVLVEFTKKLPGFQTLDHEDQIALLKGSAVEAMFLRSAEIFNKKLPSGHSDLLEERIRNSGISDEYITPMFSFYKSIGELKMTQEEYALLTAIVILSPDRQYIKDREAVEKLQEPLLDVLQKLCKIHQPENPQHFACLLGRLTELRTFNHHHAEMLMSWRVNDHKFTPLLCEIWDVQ
- ASSAY SUMMARY: Yeast one-hybrid assay of FXR antagonistic activity in HEK-293T cells
- MEASUREMENT CONDITIONS: HEK-293T cells; CDCA (50 μM) as agonist; mean ± SE of three independent tests
One threshold, 1 µM, splits the recorded IC50 values: lower ones are Yes, equal or higher ones are No.

COMPOUND	LABEL CLASS
CC(C)OC(=O)C(CCC(=O)OC1CC2C3(C)CCC(O)C(C)(C)C3CCC2(C)C2(C)CCC3(C(=O)O)CCC(C)(C)CC3C12)NC(=O)OC(C)(C)C (centres unmarked) [Compound 20d]	Yes
CC1(C)CCC2(C(=O)O)CCC3(C)C(C(OC(=O)CCC(NC(=O)OC(C)(C)C)C(=O)OC(C)(C)C)CC4C5(C)CCC(O)C(C)(C)C5CCC43C)C2C1 (centres unmarked) [Compound 10b]	Yes
CC1(C)CC[C@]2(C(=O)O)CC[C@]3(C)[C@H]([C@H](OC(=O)CC[C@@H](NC(=O)OC(C)(C)C)C(=O)OC(C)(C)C)CC4[C@@]5(C)CC[C@H](O)C(C)(C)C5CC[C@]43C)[C@@H]2C1 (some centres unmarked) [Compound 10a]	No
CC1(C)CC[C@]2(C(=O)O)CC[C@]3(C)[C@H]([C@H](OC(=O)C[C@H](NC(=O)OC(C)(C)C)C(=O)OC(C)(C)C)CC4[C@@]5(C)CC[C@H](O)C(C)(C)C5CC[C@]43C)[C@@H]2C1 (some centres unmarked)	Yes

----------
- ASSAY SUMMARY: Stability of compound 10b in mouse plasma at 37 °C (HPLC)
- Assay type: in vitro ADME
- MEASUREMENT CONDITIONS: 0 h, read-out: Recovery rate
- Procedure: 3. Stability test of compound 10b To preliminarily determine the stability of compound 10b in a biological environment, an in vitro experimental verification method was employed. […] Samples were taken at different time intervals at 37 °C, and the content of the compound was determined by HPLC C18 analytical column. […] Subsequently, a mouse with a body weight of 20 g and blood volume of 1 mL was calculated based on the subsequent in vivo experiment’s dosage (100 mg·Kg-1). […]

COMPOUND	recovery at 0 h, 0.0025 mg/mL
CC1(C)CCC2(C(=O)O)CCC3(C)C(C(OC(=O)CCC(NC(=O)OC(C)(C)C)C(=O)OC(C)(C)C)CC4C5(C)CCC(O)C(C)(C)C5CCC43C)C2C1 (stereo not shown) [Compound 10b]	68%

----------
- SYSTEM TESTED: FXR (Homo sapiens, UniProt Q96RI1)
- Construct: a fusion plasmid of Gal4 DBD-NR-LBD, which included PPARα, PPARβ, PPARγ, RXRα, RXRβ, RXRγ, LXRα, LXRβ, GPBAR, PXR, and FXR
- ASSAY SUMMARY: Yeast one-hybrid assay of FXR antagonistic activity in HEK-293T cells
- MEASUREMENT CONDITIONS: HEK-293T cells; CDCA (50 μM) as agonist; mean ± SE of three independent tests
Entries and their IC50

COMPOUND	SYSTEM TESTED	IC50, nM
CC1(C)CC[C@]2(C(=O)O)CC[C@]3(C)[C@H]([C@H](OC(=O)CC[C@H](N)C(=O)O)CC4[C@@]5(C)CC[C@H](O)C(C)(C)C5CC[C@]43C)[C@@H]2C1 (stereo partly drawn) [Compound 11c]	FXR (Homo sapiens, UniProt Q96RI1)	21300
CC1(C)CCC2(C(=O)O)CCC3(C)C(C(OC(=O)CCC(NC(=O)OC4CCCC4)C(=O)OC(C)(C)C)CC4C5(C)CCC(O)C(C)(C)C5CCC43C)C2C1 (stereo not drawn) [Compound 19g]	FXR (Homo sapiens, UniProt Q96RI1)	720
CC1(C)CC[C@]2(C(=O)O)CC[C@]3(C)[C@H]([C@H](OC(=O)C[C@@H](NC(=O)OC(C)(C)C)C(=O)OC(C)(C)C)CC4[C@@]5(C)CC[C@H](O)C(C)(C)C5CC[C@]43C)[C@@H]2C1 (stereo partly drawn) [Compound 9b]	FXR (Homo sapiens, UniProt Q96RI1)	2390
